Origin of the recorded values: ChEMBL document CHEMBL1152009

System: Streptococcus pneumoniae
Method description: In vitro antibacterial activity against Streptococcus pneumoniae PU7 (resistance due to modified target enzyme
Assay type: functional
Parameter measured: MIC (µg/mL)
Numbers only, in µg/mL.

C/C=C(\C)C(=O)OCC1=C(C(=O)O)N2C(=O)[C@@H](NC(=O)/C(=N\O)c3cnc(N)s3)[C@H]2SC1 :: 0.5
CC(=O)OCC1=C(C(=O)O)N2C(=O)[C@@H](NC(=O)/C(=N\O)c3cnc(N)s3)[C@H]2SC1 :: 2
CO/N=C(\C(=O)N[C@@H]1C(=O)N2C(C(=O)O)=C(COC(C)=O)CS[C@H]12)c1csc(N)n1 :: 2

# context switch: different compound, same MIC
Exercise: In one line, give reported MIC of the entry "C=C(C)C(=O)OCC1=C(C(=O)O)N2C(=O)[C@@H](NC(=O)/C(=N\O)c3cnc(N)s3)[C@H]2SC1" .
Solution: 1
